# AC50 measurements, system: Growth hormone secretagogue receptor type 1 (Homo sapiens, UniProt Q92847); further: assay procedure not described here
# Sequence (Q92847 whole entry): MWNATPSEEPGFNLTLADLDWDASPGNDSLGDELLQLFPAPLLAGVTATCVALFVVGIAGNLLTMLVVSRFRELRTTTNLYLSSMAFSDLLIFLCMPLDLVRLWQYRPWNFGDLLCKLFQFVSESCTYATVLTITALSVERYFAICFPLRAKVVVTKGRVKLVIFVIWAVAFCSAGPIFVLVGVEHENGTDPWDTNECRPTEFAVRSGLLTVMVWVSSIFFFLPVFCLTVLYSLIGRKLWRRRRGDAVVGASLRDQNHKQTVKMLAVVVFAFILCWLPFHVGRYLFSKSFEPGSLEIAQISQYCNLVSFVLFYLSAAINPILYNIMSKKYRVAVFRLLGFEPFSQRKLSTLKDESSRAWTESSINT

Known AC50 results, listed for orientation:
QUERY: Recall the recorded AC50 for CC1=C(/C=C/C(C)=C/C=C/C(C)=C/C(=O)Oc2c(C)c(C)c3c(c2C)CCC(C)(CCCC(C)CCCC(C)CCCC(C)C)O3)C(C)(C)CCC1 (centres undefined) [TRETINOIN TOCOFERIL] with Growth hormone secretagogue receptor type 1 (Homo sapiens, UniProt Q92847) and state it.
RESULT: > 30 µM

QUERY: Find AC50 (Growth hormone secretagogue receptor type 1 (Homo sapiens, UniProt Q92847)) for the entry COc1ccc(C(Cl)=C(c2ccc(OC)cc2)c2ccc(OC)cc2)cc1 [CHLOROTRIANISENE]
RESULT: > 30 µM

QUERY: Lab note: need AC50 for CC(C)(CO)c1cc2cc(NC(=O)C3(c4ccc5c(c4)OC(F)(F)O5)CC3)c(F)cc2n1C[C@@H](O)CO [TEZACAFTOR] on Growth hormone secretagogue receptor type 1 (Homo sapiens, UniProt Q92847), anyone have it?
RESULT: > 30 µM

Now turn to the next compound.
QUERY: Find AC50 (Growth hormone secretagogue receptor type 1 (Homo sapiens, UniProt Q92847)) for the entry O=c1[nH]cc(F)c(=O)[nH]1 [FLUOROURACIL]
RESULT: > 30 µM
